IC50 values, listed per item
# Test system: p52 (NF-kB2) nuclear translocation, HeLa cells
# PROCEDURE SUMMARY: p52 (NF-kB2) nuclear translocation assay in HeLa cells (non-classical NF-kB signaling, anti-lymphotoxin beta receptor antibody stimulated)
# Assay type: cell-based
# PROTOCOL CONDITIONS: Homo sapiens, 100 ng/mL anti-lymphotoxin beta receptor antibody for 5 hours, read-out: p52 HeLa Transloc Assay (IC50)

Query: Name the recorded IC50 of the compound listed here: `CN1CC[C@@](O)(C#Cc2cccc(-n3nc(C(N)=O)c4cnc(Cl)cc43)c2)C1=O`
Reply: 41.2 nM

Query: Entry `CN1CC[C@@](O)(C#Cc2cccc(-c3nc(C(N)=O)n4ccc(C(F)(F)F)cc34)c2)C1=O` needs its IC50 filled in; supply it.
Reply: 18.9 nM

Query: Determine from records and report IC50 for `CN1CC[C@@](O)(C#Cc2cc(-n3nc(C(N)=O)c4c3CCCC4)ccn2)C1=O`
Reply: 320 nM

Query: Tell me IC50 reported for `N#Cc1cc2c(cn1)c(C(N)=O)nn2-c1cccc(C#C[C@@]2(O)CCc3cccnc32)c1`
Reply: 91.4 nM

Query: Annotate the compound `CN1CC[C@@](O)(C#Cc2cccc(-c3nc(C(N)=O)c4cccnn34)c2)C1=O` with its measured IC50.
Reply: 356 nM

Continuing:
Query: Supply IC50 value. Item: `CN1CC[C@@](O)(C#Cc2ccnc(-n3nc(C(N)=O)c4c3C[C@@]3(C)C[C@H]3C4)c2)C1=O`
Reply: 901 nM

Query: Find the measured IC50 of `CN1CC[C@@](O)(C#Cc2cccc(-n3nc(C(N)=O)c4c3[C@H](O)CC4)c2)C1=O` and report it.
Reply: 1120 nM

Query: Quote IC50 reported for `CN1CC[C@@](O)(C#Cc2cccc(-n3nc(C(N)=O)c4ccnnc43)c2)C1=O` please.
Reply: 2000 nM

Query: Determine its reported IC50: `CN1CC[C@@](O)(C#Cc2cc(C#N)cc(-n3nc(C(N)=O)c4cccnc43)c2)C1=O`
Reply: 701 nM

Query: Give recorded IC50. `Cc1cc2c(C(N)=O)nn(-c3cccc(C#C[C@]4(O)CCN(C)C4=O)c3)c2cn1`
Reply: 215 nM

Query: Provide measured IC50 value, entry: `CN1CC[C@@](O)(C#Cc2ccnc(-n3nc(C(N)=O)c4cc(F)ccc43)c2)C1=O`
Reply: 39 nM

Query: Could you please provide reported IC50 for `CN1CC[C@@](O)(C#Cc2cccc(-c3nc(C(N)=O)n4ccc(C(N)=O)cc34)c2)C1=O` ? Thanks!
Reply: 636 nM
